Test system: Hepatitis C virus
Assay: Antiviral activity against hepatitis C virus replication
Format: functional, organism-based, Hepacivirus hominis
measurement_type: EC50 (nM)

Field: example entries. Status: answers known.
1) CC(C)OC(=O)OCOP1(=O)O[C@H]2O[C@@H](n3cnc4c(N(C)NS(C)(=O)=O)nc(N)nc43)[C@](C)(O)[C@@H]2O1 (stereo partly drawn) | 163
2) CCCOCC(C)(C)C(=O)SCCOP1(=O)O[C@H]2O[C@@H](n3cnc4c(N(C)NS(C)(=O)=O)ncnc43)[C@](C)(O)[C@@H]2O1 (stereo partly drawn) | 39
3) CCCOC(C)(C)C(=O)SCCOP1(=O)O[C@H]2O[C@@H](n3cnc4c(N(C)NS(C)(=O)=O)nc(N)nc43)[C@](C)(O)[C@@H]2O1 (stereo partly drawn) | 8
4) CN(NS(C)(=O)=O)c1ncnc2c1ncn2[C@@H]1O[C@@H]2OP(=O)(OCCSC(=O)C(C)(C)C)O[C@H]2[C@@]1(C)O (stereo partly drawn) | 145
5) CN(NS(C)(=O)=O)c1nc(N)nc2c1ncn2[C@@H]1O[C@@H]2OP(=O)(OCCSC(=O)C(C)(C)C)O[C@H]2[C@@]1(C)O (stereo partly drawn) | 22
6) CC(C)OC(=O)OCOP1(=O)O[C@H]2O[C@@H](n3cnc4c(N(C)NS(C)(=O)=O)ncnc43)[C@](C)(O)[C@@H]2O1 (stereo partly drawn) | 463

(P) CN(NS(C)(=O)=O)c1ncnc2c1ncn2[C@@H]1O[C@@H]2OP(=O)(OCOC(=O)C(C)(C)C)O[C@H]2[C@@]1(C)O (stereo partly drawn)
(Q) CN(NS(C)(=O)=O)c1nc(N)nc2c1ncn2[C@@H]1O[C@@H]2OP(=O)(OCOC(=O)C(C)(C)C)O[C@H]2[C@@]1(C)O (stereo partly drawn)
Query: P or Q : whose EC50 is greater? Kindly give the label for the entry you pick.
Response: P

###

Test: Metabolic stability in rat plasma after 1 hr
Format: ADME, organism-based
Settings: read-out: Stability
measurement_type: remaining at 1 h (%)
Reply numerically in %, unit not repeated.

Query: Provide remaining at 1 h value for the following molecule: CCCOC(C)(C)C(=O)SCCOP1(=O)O[C@H]2O[C@@H](n3cnc4c(N(C)NS(C)(=O)=O)nc(N)nc43)[C@](C)(O)[C@@H]2O1 (stereo partly specified)
Response: 4
